# Subject Of Test: FGFR1 (Homo sapiens (Human), UniProt P11362)
# Sequence (P11362 22-822): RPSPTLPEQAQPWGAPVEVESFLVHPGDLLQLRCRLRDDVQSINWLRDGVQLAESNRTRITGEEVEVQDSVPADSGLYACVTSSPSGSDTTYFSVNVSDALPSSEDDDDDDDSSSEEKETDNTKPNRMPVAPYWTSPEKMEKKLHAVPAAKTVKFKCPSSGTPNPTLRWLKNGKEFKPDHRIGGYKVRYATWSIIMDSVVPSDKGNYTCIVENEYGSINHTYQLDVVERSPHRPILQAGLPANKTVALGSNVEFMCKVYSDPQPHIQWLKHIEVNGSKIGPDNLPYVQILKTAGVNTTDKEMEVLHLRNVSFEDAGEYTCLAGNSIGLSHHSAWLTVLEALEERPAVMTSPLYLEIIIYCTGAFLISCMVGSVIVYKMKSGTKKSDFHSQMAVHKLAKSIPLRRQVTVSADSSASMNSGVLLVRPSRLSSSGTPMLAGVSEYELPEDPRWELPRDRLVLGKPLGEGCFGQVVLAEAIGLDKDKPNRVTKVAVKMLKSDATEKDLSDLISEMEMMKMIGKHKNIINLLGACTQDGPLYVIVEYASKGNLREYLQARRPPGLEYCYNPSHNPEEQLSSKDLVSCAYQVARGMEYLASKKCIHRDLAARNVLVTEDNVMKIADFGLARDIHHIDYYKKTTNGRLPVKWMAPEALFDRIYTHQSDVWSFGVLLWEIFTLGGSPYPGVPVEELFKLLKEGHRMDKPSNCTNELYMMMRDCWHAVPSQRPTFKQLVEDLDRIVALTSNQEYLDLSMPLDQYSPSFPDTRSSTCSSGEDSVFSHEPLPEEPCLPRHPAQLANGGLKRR
# Test Details: FGFR Enzymatic Assay (FRET peptide phosphorylation), FGFR1
# Condition Parameters: IC50 ratio, pre-incubated for 4 hours
Observation Type: FGFR1/FGFR4

Take a look at these entries with their results.
C=CC(=O)Nc1ccccc1Nc1cc2c(cn1)CN(c1c(F)c(OC)cc(OC)c1F)C(=O)C21CCCC1    >100
C=CC(=O)Nc1ccc(N2CCOCC2)cc1Nc1cc2c(cn1)CN(c1c(F)c(OC)cc(OC)c1F)C(=O)C21CC1    >100
C=CC(=O)Nc1ccccc1Nc1cc2c(cn1)CN(c1c(F)c(OC)cc(OC)c1F)C(=O)C21CC1    >100

Request: Entry under review: `C=CC(=O)N(C)c1cc2c(cn1)CN(c1c(F)c(OC)cc(OC)c1F)C(=O)C21CC1` . Reported FGFR1/FGFR4?
Result: >10

Request: Moving on to `C=CC(=O)Nc1ccc(N2CCN(C)CC2)cc1Nc1cc2c(cn1)CN(c1c(F)c(OC)cc(OC)c1F)C(=O)C21CC1`
Result: >25

Request: Moving on to C=CC(=O)Nc1ccccc1Nc1cc2c(cn1)CN(c1c(F)c(OC)cc(OC)c1F)C(=O)C21CCOC1 (stereo not shown)
Result: >100

Request: Moving on to `C=CC(=O)Nc1ccccc1Nc1cc2c(cn1)CN(c1c(F)c(OC)cc(OC)c1F)C(=O)C2(C)C`
Result: >100

* * *

We begin with a simple list: items and their reported FGFR3/FGFR4.
# Subject Of Test: FGFR3 (Homo sapiens (Human), UniProt P22607)
# Sequence (P22607 23-806): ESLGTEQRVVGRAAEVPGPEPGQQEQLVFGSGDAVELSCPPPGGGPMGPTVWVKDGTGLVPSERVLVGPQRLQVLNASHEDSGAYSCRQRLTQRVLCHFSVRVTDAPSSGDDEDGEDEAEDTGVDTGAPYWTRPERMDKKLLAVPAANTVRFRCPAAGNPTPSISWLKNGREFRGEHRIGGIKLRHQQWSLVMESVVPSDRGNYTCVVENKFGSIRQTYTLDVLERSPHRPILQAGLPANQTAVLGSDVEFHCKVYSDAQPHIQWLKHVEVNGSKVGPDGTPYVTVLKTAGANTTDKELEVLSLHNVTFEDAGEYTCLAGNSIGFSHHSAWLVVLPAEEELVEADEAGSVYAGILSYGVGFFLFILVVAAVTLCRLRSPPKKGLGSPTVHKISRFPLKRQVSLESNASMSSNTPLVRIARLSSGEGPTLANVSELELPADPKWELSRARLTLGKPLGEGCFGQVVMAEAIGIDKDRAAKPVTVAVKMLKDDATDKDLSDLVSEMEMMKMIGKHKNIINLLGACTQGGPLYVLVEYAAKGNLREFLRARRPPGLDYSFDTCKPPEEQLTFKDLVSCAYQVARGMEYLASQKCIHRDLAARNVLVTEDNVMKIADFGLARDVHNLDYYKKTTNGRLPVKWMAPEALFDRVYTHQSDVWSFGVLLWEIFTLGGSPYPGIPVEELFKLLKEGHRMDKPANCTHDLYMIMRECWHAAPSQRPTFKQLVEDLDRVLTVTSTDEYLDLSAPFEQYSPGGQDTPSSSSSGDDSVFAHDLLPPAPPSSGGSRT
# Test Details: FGFR Enzymatic Assay (FRET peptide phosphorylation), FGFR3
# Condition Parameters: IC50 ratio, pre-incubated for 5 to 10 minutes

C=CC(=O)Nc1cccc(C)c1Nc1cc2c(cn1)CN(c1c(F)c(OC)cc(OC)c1F)C(=O)C21CC1 [Example 5]    >10
C=CC(=O)Nc1ccc(N2CCOCC2)cc1Nc1cc2c(cn1)CN(c1c(F)c(OC)cc(OC)c1F)C(=O)C21CC1 [Example 10]    >10
C=CC(=O)Nc1ccccc1Nc1cc2c(cn1)CN(c1c(F)c(OC)cc(OC)c1F)C(=O)C21CC1 [Example 1]    >10
C=CC(=O)Nc1ccccc1Nc1cc2c(cn1)CN(c1c(F)c(OC)cc(OC)c1F)C(=O)C21CCOCC1 [Example 8]    >10

Request: Entry under review: C=CC(=O)N[C@H]1CCC[C@H]1Oc1ncc2c(n1)C1(CC1)C(=O)N(c1c(F)c(OC)cc(OC)c1F)C2 [Example 12] . Reported FGFR3/FGFR4?
Result: >10

* * *

We begin with a simple list: items and their reported pIC50.
# Subject Of Test: FGFR4 (Homo sapiens (Human), UniProt P22455)
# Sequence (P22455 22-802): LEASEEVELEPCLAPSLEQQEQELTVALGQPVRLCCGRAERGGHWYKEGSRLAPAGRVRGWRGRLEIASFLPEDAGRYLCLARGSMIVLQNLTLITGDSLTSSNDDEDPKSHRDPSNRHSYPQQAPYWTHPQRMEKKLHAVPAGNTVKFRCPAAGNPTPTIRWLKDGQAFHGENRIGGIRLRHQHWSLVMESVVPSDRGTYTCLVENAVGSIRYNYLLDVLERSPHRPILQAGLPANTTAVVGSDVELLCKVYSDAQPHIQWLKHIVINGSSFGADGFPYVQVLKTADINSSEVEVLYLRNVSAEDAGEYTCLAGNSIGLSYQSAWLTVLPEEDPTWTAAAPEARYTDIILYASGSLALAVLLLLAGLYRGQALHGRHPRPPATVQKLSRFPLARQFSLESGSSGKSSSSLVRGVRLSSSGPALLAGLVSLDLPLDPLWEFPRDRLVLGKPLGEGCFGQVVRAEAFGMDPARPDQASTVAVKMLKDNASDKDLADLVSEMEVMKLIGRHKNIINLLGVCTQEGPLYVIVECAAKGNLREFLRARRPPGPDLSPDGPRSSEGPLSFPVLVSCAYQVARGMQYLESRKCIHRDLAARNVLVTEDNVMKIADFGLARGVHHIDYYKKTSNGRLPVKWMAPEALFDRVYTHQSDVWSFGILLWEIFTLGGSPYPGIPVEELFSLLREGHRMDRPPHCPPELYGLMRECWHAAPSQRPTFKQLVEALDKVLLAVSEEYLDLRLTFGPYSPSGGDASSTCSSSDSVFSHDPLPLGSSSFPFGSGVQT
# Test Details: FGFR Enzymatic Assay (FRET peptide phosphorylation), FGFR4
# Condition Parameters: read-out: FGFR4 IC50; pre-incubated for 5 to 10 minutes
pIC50: −log10 of the molar value.

C=CC(=O)Nc1ccccc1Nc1cc2c(cn1)CN(c1c(F)c(OC)cc(OC)c1F)C(=O)C21CCOCC1    < 6.70
C=CC(=O)Nc1cccc(C)c1Nc1cc2c(cn1)CN(c1c(F)c(OC)cc(OC)c1F)C(=O)C21CC1    > 8.00
C=CC(=O)Nc1ccc(N2CCN(C)CC2)cc1Nc1cc2c(cn1)CN(c1c(F)c(OC)cc(OC)c1F)C(=O)C21CC1    > 8.00
C=CC(=O)Nc1ccc(N2CCOCC2)cc1Nc1cc2c(cn1)CN(c1c(F)c(OC)cc(OC)c1F)C(=O)C21CC1    > 8.00

Request: Entry under review: `C=CC(=O)Nc1ccccc1Nc1cc2c(cn1)CN(c1c(F)c(OC)cc(OC)c1F)C(=O)C21CCCC1` . Reported pIC50?
Result: > 8.00

Request: Moving on to `C=CC(=O)Nc1ccccc1Nc1cc2c(cn1)CN(c1c(F)c(OC)cc(OC)c1F)C(=O)C21CC1`
Result: > 8.00

* * *

# Subject Of Test: FGFR2 (Homo sapiens (Human), UniProt P21802)
# Sequence (P21802 22-821): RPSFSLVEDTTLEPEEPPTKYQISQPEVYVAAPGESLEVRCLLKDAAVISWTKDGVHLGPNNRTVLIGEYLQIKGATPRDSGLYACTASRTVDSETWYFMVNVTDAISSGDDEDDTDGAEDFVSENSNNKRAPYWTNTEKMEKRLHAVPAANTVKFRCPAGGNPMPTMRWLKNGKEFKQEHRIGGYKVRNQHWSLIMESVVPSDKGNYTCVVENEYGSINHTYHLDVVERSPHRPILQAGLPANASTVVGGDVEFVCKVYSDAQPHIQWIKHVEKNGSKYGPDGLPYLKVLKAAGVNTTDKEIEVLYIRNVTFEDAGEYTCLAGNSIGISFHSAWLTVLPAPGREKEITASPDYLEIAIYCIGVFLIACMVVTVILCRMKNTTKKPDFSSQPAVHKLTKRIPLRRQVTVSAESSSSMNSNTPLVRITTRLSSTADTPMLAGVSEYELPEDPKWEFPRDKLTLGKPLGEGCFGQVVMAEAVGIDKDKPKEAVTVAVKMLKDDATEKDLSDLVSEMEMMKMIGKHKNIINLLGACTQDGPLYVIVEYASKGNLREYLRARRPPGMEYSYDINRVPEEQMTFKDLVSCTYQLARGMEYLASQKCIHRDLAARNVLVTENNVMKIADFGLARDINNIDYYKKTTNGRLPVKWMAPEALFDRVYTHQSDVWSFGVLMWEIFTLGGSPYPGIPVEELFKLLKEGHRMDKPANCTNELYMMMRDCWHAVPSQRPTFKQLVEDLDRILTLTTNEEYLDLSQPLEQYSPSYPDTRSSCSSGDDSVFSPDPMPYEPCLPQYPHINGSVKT
# Test Details: FGFR Enzymatic Assay (FRET peptide phosphorylation), FGFR2
# Condition Parameters: read-out: FGFR2 IC50; pre-incubated for 5 to 10 minutes
pIC50: −log10 of the molar value.
We begin with a simple list: items and their reported pIC50.

Take a look at these entries with their results.
C=CC(=O)Nc1ccccc1Nc1cc2c(cn1)CN(c1c(F)c(OC)cc(OC)c1F)C(=O)C21CCOC1 (stereo not shown)    < 6.70
C=CC(=O)Nc1ccccc1Nc1cc2c(cn1)CN(c1c(F)c(OC)cc(OC)c1F)C(=O)C21CCCC1    < 6.70
C=CC(=O)Nc1ccccc1Nc1cc2c(cn1)CN(c1c(F)c(OC)cc(OC)c1F)C(=O)C21CC1    6.70 to 7.52

--- query ---
Request: Entry under review: `C=CC(=O)Nc1ccccc1Nc1cc2c(cn1)CN(c1c(F)c(OC)cc(OC)c1F)C(=O)C2(C)C` . Reported pIC50?
Result: < 6.70

* * *

# Subject Of Test: UniProtKB P21802
# Test Details: FGFR Enzymatic Assay (FRET peptide phosphorylation), FGFR2
# Condition Parameters: IC50 ratio, pre-incubated for 5 to 10 minutes
We begin with a simple list: items and their reported FGFR2/FGFR4.

C=CC(=O)N(C)c1cc2c(cn1)CN(c1c(F)c(OC)cc(OC)c1F)C(=O)C21CC1    >2
C=CC(=O)Nc1ccccc1Nc1cc2c(cn1)CN(c1c(F)c(OC)cc(OC)c1F)C(=O)C21CCOCC1    >10

Request: Entry under review: C=CC(=O)NC1CCCCC1Nc1cc2c(cn1)CN(c1c(F)c(OC)cc(OC)c1F)C(=O)C21CC1 (racemic) . Reported FGFR2/FGFR4?
Result: >5

Request: Moving on to `C=CC(=O)Nc1ccccc1Nc1cc2c(cn1)CN(c1c(F)c(OC)cc(OC)c1F)C(=O)C2(C)C`
Result: >10

* * *

# Subject Of Test: UniProtKB P21802
# Test Details: FGFR Enzymatic Assay (FRET peptide phosphorylation), FGFR2
# Condition Parameters: IC50 ratio, pre-incubated for 4 hours
Observation Type: FGFR2/FGFR4

Take a look at these entries with their results.
C=CC(=O)Nc1ccc(N2CCN(C)CC2)cc1Nc1cc2c(cn1)CN(c1c(F)c(OC)cc(OC)c1F)C(=O)C21CC1    >25
C=CC(=O)NC1CCCCC1Nc1cc2c(cn1)CN(c1c(F)c(OC)cc(OC)c1F)C(=O)C21CC1 (racemic)    >25
C=CC(=O)Nc1ccccc1Nc1cc2c(cn1)CN(c1c(F)c(OC)cc(OC)c1F)C(=O)C21CCOCC1    >100

Request: Entry under review: C=CC(=O)Nc1ccccc1Nc1cc2c(cn1)CN(c1c(F)c(OC)cc(OC)c1F)C(=O)C21CCOC1 (stereo not drawn) . Reported FGFR2/FGFR4?
Result: >100

Request: Moving on to `C=CC(=O)Nc1ccccc1Nc1cc2c(cn1)CN(c1c(F)c(OC)cc(OC)c1F)C(=O)C2(C)C`
Result: >100

Request: Moving on to C=CC(=O)NC1COCC1Nc1cc2c(cn1)CN(c1c(F)c(OC)cc(OC)c1F)C(=O)C21CC1 (racemic)
Result: >100

* * *

We begin with a simple list: items and their reported FGFR3/FGFR4.
# Subject Of Test: FGFR3 (Homo sapiens (Human), UniProt P22607)
# Test Details: FGFR Enzymatic Assay (FRET peptide phosphorylation), FGFR3
# Condition Parameters: IC50 ratio, pre-incubated for 4 hours

Take a look at these entries with their results.
C=CC(=O)NC1CCCCC1Nc1cc2c(cn1)CN(c1c(F)c(OC)cc(OC)c1F)C(=O)C21CC1 (racemic) [Example 3]    >100
C=CC(=O)NC1COCC1Nc1cc2c(cn1)CN(c1c(F)c(OC)cc(OC)c1F)C(=O)C21CC1 (racemic) [Example 4]    >100
C=CC(=O)Nc1ccccc1Nc1cc2c(cn1)CN(c1c(F)c(OC)cc(OC)c1F)C(=O)C21CCCC1 [Example 7]    >100
C=CC(=O)Nc1ccc(N2CCOCC2)cc1Nc1cc2c(cn1)CN(c1c(F)c(OC)cc(OC)c1F)C(=O)C21CC1 [Example 10]    >100
C=CC(=O)Nc1ccccc1Nc1cc2c(cn1)CN(c1c(F)c(OC)cc(OC)c1F)C(=O)C2(C)C [Example 6]    >100

Request: Entry under review: C=CC(=O)Nc1cccc(C)c1Nc1cc2c(cn1)CN(c1c(F)c(OC)cc(OC)c1F)C(=O)C21CC1 [Example 5] . Reported FGFR3/FGFR4?
Result: >100

Request: Moving on to C=CC(=O)N[C@H]1CCC[C@H]1Oc1ncc2c(n1)C1(CC1)C(=O)N(c1c(F)c(OC)cc(OC)c1F)C2 [Example 12]
Result: >100

Request: Moving on to C=CC(=O)Nc1ccccc1Nc1cc2c(cn1)CN(c1c(F)c(OC)cc(OC)c1F)C(=O)C21CC1 [Example 1]
Result: >100
